Assayed system: CFTR-S549N (Homo sapiens, UniProt P13569, S549N)
Sequence (P13569 whole entry S549N): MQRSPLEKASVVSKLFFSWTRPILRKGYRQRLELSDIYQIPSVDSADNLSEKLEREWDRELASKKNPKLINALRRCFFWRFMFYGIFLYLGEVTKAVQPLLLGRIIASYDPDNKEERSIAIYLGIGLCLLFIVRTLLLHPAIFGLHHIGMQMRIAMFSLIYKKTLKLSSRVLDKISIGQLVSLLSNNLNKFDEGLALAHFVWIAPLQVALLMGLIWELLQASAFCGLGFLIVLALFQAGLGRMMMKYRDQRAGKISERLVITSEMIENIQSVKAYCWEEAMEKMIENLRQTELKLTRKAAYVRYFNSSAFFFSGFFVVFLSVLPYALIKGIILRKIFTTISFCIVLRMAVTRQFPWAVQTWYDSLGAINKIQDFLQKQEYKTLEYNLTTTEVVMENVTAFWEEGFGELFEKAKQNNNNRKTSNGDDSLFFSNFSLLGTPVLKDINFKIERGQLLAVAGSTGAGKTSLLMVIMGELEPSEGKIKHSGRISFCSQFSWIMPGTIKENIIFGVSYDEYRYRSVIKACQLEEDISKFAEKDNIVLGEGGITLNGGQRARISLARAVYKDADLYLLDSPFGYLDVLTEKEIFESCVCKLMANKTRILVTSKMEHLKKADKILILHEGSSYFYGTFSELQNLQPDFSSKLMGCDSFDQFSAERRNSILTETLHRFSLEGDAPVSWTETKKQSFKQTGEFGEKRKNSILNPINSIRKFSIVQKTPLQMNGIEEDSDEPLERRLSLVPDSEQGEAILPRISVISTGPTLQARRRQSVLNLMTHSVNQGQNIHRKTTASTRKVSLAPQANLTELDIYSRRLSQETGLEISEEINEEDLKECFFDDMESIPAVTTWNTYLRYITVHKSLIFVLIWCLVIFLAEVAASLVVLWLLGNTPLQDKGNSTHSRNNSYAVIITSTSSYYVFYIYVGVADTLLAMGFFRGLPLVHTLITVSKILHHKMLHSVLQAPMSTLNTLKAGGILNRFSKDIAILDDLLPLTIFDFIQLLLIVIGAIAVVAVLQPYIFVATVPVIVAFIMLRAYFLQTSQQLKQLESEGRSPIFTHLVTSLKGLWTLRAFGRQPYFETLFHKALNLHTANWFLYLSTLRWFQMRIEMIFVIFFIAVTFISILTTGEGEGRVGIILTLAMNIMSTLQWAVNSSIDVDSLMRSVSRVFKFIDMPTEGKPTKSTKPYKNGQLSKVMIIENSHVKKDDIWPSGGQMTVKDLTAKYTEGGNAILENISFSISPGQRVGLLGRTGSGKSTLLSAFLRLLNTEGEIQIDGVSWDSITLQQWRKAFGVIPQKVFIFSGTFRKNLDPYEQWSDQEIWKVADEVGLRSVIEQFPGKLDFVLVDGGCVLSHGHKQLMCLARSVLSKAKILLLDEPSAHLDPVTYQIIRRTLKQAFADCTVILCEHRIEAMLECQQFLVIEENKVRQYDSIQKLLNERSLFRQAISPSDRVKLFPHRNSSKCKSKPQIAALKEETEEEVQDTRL
Assay name: YFP-halide influx assay for the CFTR-S549N
Label YES when EC50 is strictly below 300 nM; otherwise label NO.

Reference set (4 entries):
# Compound, Assayed system, Label value
records = [
    ("Nc1cc(S(=O)(=O)c2ccc(OC(F)(F)F)cc2)cnc1C(=O)N1CC(O)(C(F)(F)F)C1 [Compound 79]", "CFTR-S549N (Homo sapiens, UniProt P13569, S549N)", "YES"),
    ("COC[C@H](O)CNC(=O)c1ncc(S(=O)(=O)c2ccc(C(F)(F)F)cc2)cc1N [Compound 70]", "CFTR-S549N (Homo sapiens, UniProt P13569, S549N)", "NO"),
    ("Nc1cc(S(=O)(=O)c2ccc(F)cc2)cnc1C(=O)N1CC(O)(C(F)(F)F)C1 [Compound 176]", "CFTR-S549N (Homo sapiens, UniProt P13569, S549N)", "YES"),
    ("Nc1cc(S(=O)(=O)c2ccc(OC(F)(F)F)cc2)cnc1C(=O)N1CC(F)(F)C1 [Compound 40]", "CFTR-S549N (Homo sapiens, UniProt P13569, S549N)", "NO"),
]

Strictly below 300 nM in EC50? C[C@H](O)CNC(=O)c1ncc(S(=O)(=O)c2ccc(C(F)(F)F)cc2)cc1N [Compound 100] NO

Strictly below 300 nM in EC50? CC(O)(CNC(=O)c1ncc(S(=O)(=O)c2ccc(OC(F)(F)F)cc2)cc1N)C(F)(F)F (centres unmarked) [Compound 2] NO

Strictly below 300 nM in EC50? Nc1cc(S(=O)(=O)c2ccc(C(F)(F)F)cc2)cnc1C(=O)N1CC(OCC(F)F)C1 [Compound 231] YES

----------
Listed below: pEC50 values for each entry.
Assayed system: CFTR G551D mutant (Homo sapiens, UniProt P13569, G551D)
Sequence (P13569 whole entry G551D): as the sequence (P13569 whole entry S549N) above, with N549S, G551D counted along it
Assay name: YFP-halide influx assay for the CFTR-G551D mutation (HEK293 cells)
Measurement parameters: forskolin 10.67 μM
Scale: negative log10 of molar concentration, which is what pEC50 denotes.

Look over these answered cases.
# Compound, pEC50
measured = [
    ("Nc1cc(S(=O)(=O)c2ccc(OC(F)(F)F)cc2)cnc1C(=O)NC[C@@H](O)COCC1CC1", 6.04),
    ("Nc1cc(S(=O)(=O)c2ccc(OC(F)(F)F)cc2)cnc1C(=O)NCC1(O)CCOCC1", 5.82),
    ("CC(C)(C)OCC(O)CNC(=O)c1ncc(S(=O)(=O)c2ccc(C(F)(F)F)cc2F)cc1N (stereo not shown)", 6.56),
    ("Nc1cc(S(=O)(=O)c2ccc(OC(F)(F)F)cc2)cnc1C(=O)NC[C@H](O)COCC1CC1", 6.08),
]

Turning now to a further compound:
For CFTR G551D mutant (Homo sapiens, UniProt P13569, G551D), provide pEC50 of `Nc1cc(S(=O)(=O)c2ccc(C(F)(F)F)cc2)cnc1C(=O)N1CC(OCC(F)F)C1` please. 6.35

----------
Assayed system: CFTR-G1349D (Homo sapiens, UniProt P13569, G1349D)
Sequence (P13569 whole entry G1349D): as the sequence (P13569 whole entry S549N) above, with N549S, G1349D counted along it
Assay name: YFP-halide influx assay for the CFTR-G1349D
Protocol: The YFP halide influx assay measured the functionality of the cystic fibrosis Transmembrane Conductance regulator (CFTR) channels. The assay was used to evaluate the capacity of compounds to increase the channel opening of existing mutant CFTR channels in the membrane. […] The I^−-induced quenching of fluorescence was recorded immediately after injection of I^− for 7 seconds. […]
Assay endpoint: pEC50
Scale: negative log10 of molar concentration, which is what pEC50 denotes.

Look over these answered cases.
# Compound, pEC50
measured = [
    ("CCC1(F)CN(C(=O)c2ncc(S(=O)(=O)c3ccc(OC(F)(F)F)cc3)cc2N)C1 [Compound 130]", 6.15),
    ("CC(C)(O)CNC(=O)c1ncc(S(=O)(=O)c2ccc(OC(F)(F)F)cc2)cc1N [Compound 1]", 6.58),
    ("COCC1(C)CN(C(=O)c2ncc(S(=O)(=O)c3ccc(OC(F)(F)F)cc3)cc2N)C1 [Compound 154]", 6.20),
    ("Nc1cc(S(=O)(=O)c2ccc(OC(F)(F)F)cc2)cnc1C(=O)N1CC(O)(C2CC2)C1 [Compound 86]", 7.26),
]

So what's the measured pEC50 for this one? Nc1cc(S(=O)(=O)c2ccc(OC(F)(F)F)cc2)cnc1C(=O)Nc1cc[nH]n1 [Compound 291] 6.83

So what's the measured pEC50 for this one? C[C@H](O)CNC(=O)c1ncc(S(=O)(=O)c2ccccc2OC(F)(F)F)cc1N [Compound 82] 6.99

So what's the measured pEC50 for this one? COCC(O)CNC(=O)c1ncc(S(=O)(=O)c2ccc(OC(F)(F)F)cc2)cc1N (stereo not drawn) [Compound 3] 6.54

So what's the measured pEC50 for this one? Nc1cc(S(=O)(=O)c2ccc(OC(F)(F)F)cc2)cnc1C(=O)N1CC(OCC(F)F)C1 [Compound 119] 6.49

So what's the measured pEC50 for this one? Nc1cc(S(=O)(=O)c2ccc(OC(F)(F)F)cc2)cnc1C(=O)NCC(O)C(F)(F)F (stereo not drawn) [Compound 6] 6.80

----------
Assayed system: CFTR-G1349D (Homo sapiens, UniProt P13569, G1349D)
Assay name: YFP-halide influx assay for the CFTR-G1349D
Listed below: log10 of EC50 values for each entry.
All values: log10 EC50 [nM].

# Compound, log10 of EC50
records = [
    ("Nc1cc(S(=O)(=O)c2ccc(OC(F)(F)F)cc2)cnc1C(=O)N1CC(O)C1", 2.73),
]

So what's the measured log10 of EC50 for this one? `Nc1cc(S(=O)(=O)c2ccc(F)cc2)cnc1C(=O)NC[C@H](O)C(F)(F)F` 2.61

So what's the measured log10 of EC50 for this one? COCC(O)CNC(=O)c1ncc(S(=O)(=O)c2ccccc2OC(F)(F)F)cc1N (stereo not drawn) 2.08

So what's the measured log10 of EC50 for this one? `Nc1cc(S(=O)(=O)c2ccc(F)cc2)c(-c2ccc(F)cc2)nc1C(=O)NC[C@@H](O)C(F)(F)F` 2.24

So what's the measured log10 of EC50 for this one? `CC(C)(O)C1CN(C(=O)c2ncc(S(=O)(=O)c3ccc(C(F)(F)F)cc3)cc2N)C1` 2.33

So what's the measured log10 of EC50 for this one? `Nc1cc(S(=O)(=O)c2ccccc2OC(F)(F)F)cnc1C(=O)N1CC(O)(C(F)(F)F)C1` 0.44

So what's the measured log10 of EC50 for this one? `Nc1cc(S(=O)(=O)c2ccc(F)cc2)cnc1C(=O)N1CC(O)(C(F)(F)F)C1` 1.47

So what's the measured log10 of EC50 for this one? `CC1(O)CN(C(=O)c2ncc(S(=O)(=O)c3ccc(C(F)(F)F)cc3)cc2N)C1` 2.87

So what's the measured log10 of EC50 for this one? `Nc1cc(S(=O)(=O)c2ccc(OC(F)(F)F)cc2)cnc1C(=O)N1CC(F)(F)C1` 2.64

----------
Assayed system: CFTR G551D mutant (Homo sapiens, UniProt P13569, G551D)
Construct: expressed in transfected cells; host or cells: HEK293 cells, reverse transfection with plasmids
Assay name: YFP-halide influx assay for the CFTR-G551D mutation (HEK293 cells)
Format: cell-based
Measurement parameters: forskolin 10.67 μM
Description: The YFP halide influx assay measured the functionality of the cystic fibrosis Transmembrane Conductance regulator (CFTR) channels. The assay was used to evaluate the capacity of compounds to increase the channel opening of existing mutant CFTR channels in the membrane. […] The I^−-induced quenching of fluorescence was recorded immediately after injection of I^− for 7 seconds. […]
Everything with % Activation lower than 60% is No; everything else, including exactly 60%, is Yes.

Reference set (5 entries):
# Compound, Label value
data = [
    ("COc1ccc(CN(C)S(=O)(=O)c2cnc(C(=O)NCC(O)C(F)(F)F)c(N)c2)cc1 (stereo not shown)", "No"),
    ("Nc1cc(S(=O)(=O)c2ccc(OC(F)(F)F)cc2)cnc1C(=O)N[C@H]1CCOC1", "No"),
    ("Nc1cc(S(=O)(=O)c2ccc(C(F)(F)F)cc2)cnc1C(=O)N1CC(F)(F)C1", "No"),
    ("Nc1cc(S(=O)(=O)c2ccccc2OC(F)(F)F)cnc1C(=O)N1CC(O)(C(F)(F)F)C1", "No"),
    ("CC(C)(O)C1CN(C(=O)c2ncc(S(=O)(=O)c3ccc(C(F)(F)F)cc3F)cc2N)C1", "Yes"),
]

I'd appreciate it if you could say whether Nc1cc(S(=O)(=O)c2ccc(C(F)(F)F)cc2F)cnc1C(=O)NCC(O)COCC(F)(F)F (stereo not shown) has % Activation at least equal to 60%. Yes

I'd appreciate it if you could say whether `CC(C)NC(=O)CNC(=O)c1ncc(S(=O)(=O)c2ccc(C(F)(F)F)cc2F)cc1N` has % Activation at least equal to 60%. No

I'd appreciate it if you could say whether `COC[C@H](O)CNC(=O)c1ncc(S(=O)(=O)c2ccc(OC(F)(F)F)cc2)cc1N` has % Activation at least equal to 60%. Yes
